half-life at 1 μM values for the compounds below.
Assay: Metabolic stability in human liver microsomes
Type: in vitro ADME
Settings: pooled human liver microsomes, pH 7.6, 37° C., 1 mg/mL microsomal protein, 1 μM compound, NADPH 1 mM, read-out: Half-life - t½ human liver microsomes
assay-readout: half-life at 1 μM (min)

smiles_string=Cc1ccc(COC(=O)N2CCO[C@H](c3nc4nccnc4[nH]3)C2)cc1 readout_units=min relation_sign== experimental_value=36
smiles_string=O=C(OCc1ccc(F)cc1F)N1CCO[C@H](c2nc3nccnc3[nH]2)C1 readout_units=min relation_sign=> experimental_value=130
smiles_string=O=C(OCc1ccccc1F)N1CCO[C@H](c2nc3nccnc3[nH]2)C1 readout_units=min relation_sign=> experimental_value=130
smiles_string=Cc1cccc(COC(=O)N2CCO[C@H](c3nc4nccnc4[nH]3)C2)c1F readout_units=min relation_sign== experimental_value=8
smiles_string=Cc1ccc(COC(=O)N2CCO[C@H](c3nc4nccnc4[nH]3)C2)c(F)c1 readout_units=min relation_sign== experimental_value=31.5
smiles_string=O=C(OCc1ccc(F)cc1)N1CCO[C@H](c2nc3nccnc3[nH]2)C1 readout_units=min relation_sign=> experimental_value=130

Value source: patent US12398143B2
